# measurement_target: T1, GFP-9S library array, motif 4 ND N98C;D124W (synthetic construct, N98C;D124W)
# T1 chain: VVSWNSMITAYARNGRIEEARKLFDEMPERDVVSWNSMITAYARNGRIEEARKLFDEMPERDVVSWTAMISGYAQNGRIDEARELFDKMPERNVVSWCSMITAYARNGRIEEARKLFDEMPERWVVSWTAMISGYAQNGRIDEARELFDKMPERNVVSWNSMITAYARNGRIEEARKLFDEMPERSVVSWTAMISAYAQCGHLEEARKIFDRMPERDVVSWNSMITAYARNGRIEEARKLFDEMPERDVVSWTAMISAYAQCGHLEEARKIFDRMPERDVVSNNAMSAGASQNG
# measurement_notes: high-throughput RNA pulldown from lysate on Ni-NTA beads; HRP: 50 mM Tris pH 8, 150 mM NaCl, 1 mM beta-mercaptoethanol, 50 ug/ml BSA, 3 ug/ml yeast RNA, 0.5% heparin; ITC and FP: Tris pH 8, 200 mM KCl, 5% glycerol; MST: 50 mM Tris pH 8, 200 mM NaCl, 1 mM DTT, BSA, heparin, 0.05% Tween 20
# study_conditions: tags: N-terminal His-eGFP; label: 5' IRDye 800CW
Kindly state Kd for each of the entries shown.
Unit nM implied. Number only.

Form: binder = AUUAUACGUGA (ssRNA) [IR-rpoA-U] ; Kd = 234

Form: binder = AUUAAACGUGA (ssRNA) [IR-rpoA-A] ; Kd = 171

Cited source for all entries: paper PMC8809517
